Reference for the values: patent US20170107203A1

Entries annotated with measured hNav1.7: Voltage dependence of fast inactivation (mV) VDEP
biological target: human Nav1.7 (Homo sapiens); construct: expressed in transfected cells; assay: Assessment of Nav1.7 activity on PatchXpress (voltage dependence / slow inactivation parameters); format: cell-based; conditions: compound at 10 μM; relative to 0.2% DMSO vehicle control
Sequence (Q15858 whole entry): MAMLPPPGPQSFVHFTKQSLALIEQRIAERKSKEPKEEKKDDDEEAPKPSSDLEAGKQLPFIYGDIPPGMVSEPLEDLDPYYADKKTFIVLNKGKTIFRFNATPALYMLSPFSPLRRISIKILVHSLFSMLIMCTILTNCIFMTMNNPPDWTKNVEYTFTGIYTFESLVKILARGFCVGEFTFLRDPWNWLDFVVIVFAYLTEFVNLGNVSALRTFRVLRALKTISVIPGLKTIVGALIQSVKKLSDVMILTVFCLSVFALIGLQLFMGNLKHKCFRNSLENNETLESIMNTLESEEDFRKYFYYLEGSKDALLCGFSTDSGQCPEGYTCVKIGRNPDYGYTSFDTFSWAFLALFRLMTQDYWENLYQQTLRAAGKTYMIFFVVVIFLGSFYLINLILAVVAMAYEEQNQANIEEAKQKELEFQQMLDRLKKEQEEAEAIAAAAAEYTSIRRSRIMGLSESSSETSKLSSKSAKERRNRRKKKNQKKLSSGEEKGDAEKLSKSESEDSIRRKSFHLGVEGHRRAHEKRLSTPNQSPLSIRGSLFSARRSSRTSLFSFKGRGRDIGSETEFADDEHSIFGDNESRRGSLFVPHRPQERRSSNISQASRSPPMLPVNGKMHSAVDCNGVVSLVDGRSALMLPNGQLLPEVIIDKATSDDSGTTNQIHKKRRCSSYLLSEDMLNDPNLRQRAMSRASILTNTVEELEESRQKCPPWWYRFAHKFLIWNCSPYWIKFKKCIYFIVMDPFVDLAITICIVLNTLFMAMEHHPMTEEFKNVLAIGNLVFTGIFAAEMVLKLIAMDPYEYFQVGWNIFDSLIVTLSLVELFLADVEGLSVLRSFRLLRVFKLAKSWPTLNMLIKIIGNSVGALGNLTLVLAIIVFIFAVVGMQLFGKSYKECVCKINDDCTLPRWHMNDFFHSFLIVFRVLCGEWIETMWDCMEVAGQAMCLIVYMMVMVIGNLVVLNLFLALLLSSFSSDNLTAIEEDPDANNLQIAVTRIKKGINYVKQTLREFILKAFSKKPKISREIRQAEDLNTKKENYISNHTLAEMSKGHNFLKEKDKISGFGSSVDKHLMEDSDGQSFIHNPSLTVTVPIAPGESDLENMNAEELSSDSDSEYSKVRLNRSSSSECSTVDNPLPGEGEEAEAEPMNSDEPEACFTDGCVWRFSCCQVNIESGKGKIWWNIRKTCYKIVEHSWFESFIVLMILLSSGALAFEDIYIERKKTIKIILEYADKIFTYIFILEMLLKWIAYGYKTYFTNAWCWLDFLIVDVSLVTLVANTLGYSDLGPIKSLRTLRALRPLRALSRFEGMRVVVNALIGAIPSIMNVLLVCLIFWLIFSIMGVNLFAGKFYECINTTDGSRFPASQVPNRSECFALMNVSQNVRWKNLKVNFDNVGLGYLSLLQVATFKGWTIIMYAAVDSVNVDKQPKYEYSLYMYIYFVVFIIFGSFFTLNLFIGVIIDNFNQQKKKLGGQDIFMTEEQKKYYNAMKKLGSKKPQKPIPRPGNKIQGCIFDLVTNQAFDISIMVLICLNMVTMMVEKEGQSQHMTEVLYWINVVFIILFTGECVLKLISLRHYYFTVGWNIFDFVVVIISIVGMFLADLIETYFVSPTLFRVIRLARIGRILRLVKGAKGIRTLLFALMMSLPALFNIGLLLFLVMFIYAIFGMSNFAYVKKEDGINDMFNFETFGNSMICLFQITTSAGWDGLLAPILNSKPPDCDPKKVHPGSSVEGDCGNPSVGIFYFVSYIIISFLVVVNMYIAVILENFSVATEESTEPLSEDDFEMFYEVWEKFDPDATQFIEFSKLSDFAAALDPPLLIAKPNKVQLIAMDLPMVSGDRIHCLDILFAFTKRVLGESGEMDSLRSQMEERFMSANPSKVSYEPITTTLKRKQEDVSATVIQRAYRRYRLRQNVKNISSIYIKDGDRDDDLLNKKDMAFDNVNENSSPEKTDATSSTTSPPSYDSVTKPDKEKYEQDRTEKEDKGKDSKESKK
Sequence (Q07699 19-218 partner): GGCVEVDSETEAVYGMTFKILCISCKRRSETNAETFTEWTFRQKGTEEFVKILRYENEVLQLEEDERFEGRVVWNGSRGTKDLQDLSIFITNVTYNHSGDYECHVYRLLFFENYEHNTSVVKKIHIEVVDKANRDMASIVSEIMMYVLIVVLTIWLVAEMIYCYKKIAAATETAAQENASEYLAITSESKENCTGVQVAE
Note: unit mV is implicit; provide only the numeric part.

As a guide, the following entries are already answered.
Tell me its hNav1.7: Voltage dependence of fast inactivation (mV) VDEP given CC(C)CC(N)C(=O)N[C@H](COc1cc(C(F)(F)F)cc(C(F)(F)F)c1)c1ccccc1 (some centres unmarked) as the entry.
−11.50

For C[C@@H](NC(=O)[C@H]1CCCN1)c1ccc(OCC(F)(F)F)cn1 , write its hNav1.7: Voltage dependence of fast inactivation (mV) VDEP.
−0.5

Given CC(C)(c1nc2cc(C(F)(F)F)cc(C(F)(F)F)c2[nH]1)N1CCNCC1=O , respond with its hNav1.7: Voltage dependence of fast inactivation (mV) VDEP.
−3.8

Name the recorded hNav1.7: Voltage dependence of fast inactivation (mV) VDEP of the item Cc1cccc(C)c1OCC(C)NC(=O)CCN1CCNCC1=O (centres unmarked) in your answer.
−5.00

Indicate the recorded hNav1.7: Voltage dependence of fast inactivation (mV) VDEP value for this molecule: CC(C)C[C@@H](N)C(=O)NC(COc1cc(C(F)(F)F)cc(C(F)(F)F)c1)c1ccccc1 (some centres unmarked)
−15.3

More entries:
Look up and report measured hNav1.7: Voltage dependence of fast inactivation (mV) VDEP for this entry: COC[C@@H](NC(C)=O)C(=O)NCc1cc(C(F)(F)F)cc(C(F)(F)F)c1
−7.9

Could you please provide reported hNav1.7: Voltage dependence of fast inactivation (mV) VDEP for O=C(NCCOc1cc(C(F)(F)F)cc(C(F)(F)F)c1)C1CCCN1 (centres unmarked) ? Thanks!
−1.10

For Cc1cccc(C)c1OCC(C)NC(=O)CC(=O)NC1CCNCC1 (centres unmarked) , write its hNav1.7: Voltage dependence of fast inactivation (mV) VDEP.
−5.10

---

Reported hNav1.7: Reduction in current at 20 mV (normalized data) Delta Ratio by item:
target: human Nav1.7 (Homo sapiens); construct: expressed in transfected cells; experiment: Assessment of Nav1.7 activity on PatchXpress (voltage dependence / slow inactivation parameters); type: cell-based; conditions: compound at 10 μM; before/after 30 sec conditioning pulse at 20 mV; relative to 0.2% DMSO vehicle control
Reply: number alone, nothing else.

Previously resolved entries follow.
Provide hNav1.7: Reduction in current at 20 mV (normalized data) Delta Ratio, recorded with human Nav1.7 (Homo sapiens), of CC(C)C[C@@H](N)C(=O)NC(COc1cc(C(F)(F)F)cc(C(F)(F)F)c1)c1ccccc1 (stereo partly shown) [Compound 38]
−0.34

Find hNav1.7: Reduction in current at 20 mV (normalized data) Delta Ratio for N[C@H](c1ccccc1)c1nc2cc(C(F)(F)F)cc(C(F)(F)F)c2[nH]1 [Compound 57] on human Nav1.7 (Homo sapiens) and write it down.
−0.21

// fetch hNav1.7: Reduction in current at 20 mV (normalized data) Delta Ratio for CC(C)CC(N)C(=O)N[C@H](COc1cc(C(F)(F)F)cc(C(F)(F)F)c1)c1ccccc1 (stereo partly shown) [Compound 4] ; system: human Nav1.7 (Homo sapiens)
−0.27

Kindly review the next compound as well.
Identify measured hNav1.7: Reduction in current at 20 mV (normalized data) Delta Ratio obtained with human Nav1.7 (Homo sapiens) for CC[C@@H](C)[C@@H](N)C(=O)NCCOc1cc(F)cc(C(F)(F)F)c1 [Compound 19] .
−0.08
